test system: K562; assay: NCI tumour cell line growth inhibition, 48 h
Calls of active or inactive are those of the source. Rule as the data show it: active = GI50 up to about 1.1 µM and inactive = higher.
Each entry below carries its recorded GI50.
measured-endpoint: GI50

{"molecule": "NC1=CN2c3ccccc3N(CC(=O)O)C2C=C1 (configuration not stated)", "endpoint-value": "> 100 µM (inactive)"}
{"molecule": "O=C(Cc1cc[n+]([O-])cc1)C(=O)Nc1cc(Cl)c(Cl)cc1Cl", "endpoint-value": "> 100 µM (inactive)"}
{"molecule": "CCOC(=O)C(Cc1cccn1C(=O)OC(C)(C)C)[N+](=O)[O-] (configuration not stated)", "endpoint-value": "24.7 µM (inactive)"}
{"molecule": "CCCCCCCCCCCCCC1=C(O)C(=O)C(CC2=C(O)C(=O)C(CCCCCCCCCCCCC)=C(O)C2=O)=C(O)C1=O", "endpoint-value": "66.1 µM (inactive)"}
{"molecule": "COc1cc2c(cc1OC)C(O)[C@H](Br)C(C)(C)O2 (some centres not stated)", "endpoint-value": "> 100 µM (inactive)"}
{"molecule": "CCN(CC)P(=O)(c1ccc2c(c1)OCCOCCOCCOCCO2)N(CC)CC", "endpoint-value": "> 100 µM (inactive)"}
{"molecule": "COc1ccc(C(=C(Cl)c2ccccc2)c2ccc(OC)cc2)cc1", "endpoint-value": "> 100 µM (inactive)"}

Ref: ChEMBL document CHEMBL1201862
